Reported growth inhibition values follow for various compounds
experiment: NCI Yeast Anticancer Drug Screen. Data for the sgs1 mgt1 strain (AID 161);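 note: 0% = growth of cultures given vehicle only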; conditions: S. cerevisiae sgs1 mgt1 strain, at 50.0 µM (retest, dose inferred, filed as 5.0), active compounds read high
The panel holds about 79,000 compounds, 15% with a hit somewhere; the sample as a whole holds those more often.

compound	reading-unit	growth inhibition
CCCCCCOC(=O)COc1ccccc1	%	3
CCC[CH2][Sn]([CH2]CCC)([O]C(=O)c1cc(OC)c(OC)cc1OC)[O][Sn]([CH2]CCC)([CH2]CCC)[O]C(=O)c1cc(OC)c(OC)cc1OC	%	99
COc1ccc2cc(C3CCCC3(C)CC(=O)O)ccc2c1 (centres undefined)	%	8
CC(=O)C(=C(I)I)c1ccccc1	%	93

----------
test: NCI Yeast Anticancer Drug Screen. Data for the sgs1 mgt1 strain (AID 161);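 note: 0% = growth of cultures given vehicle only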; settings: S. cerevisiae sgs1 mgt1 strain, at 50.0 µM, active compounds read high
Compounds without any hit were thinned out: in the full panel of roughly 79,000, 15% have a hit.
Would you please tag the item true when its growth inhibition is 70% or above, and false when it is below?

compound	assigned-category
Cc1ccc(N2C(=O)CCSC2=S)cc1C	true
Nc1c2c(=O)[nH]c(=O)c2c(N)c2c(=O)c3ccccc3c(=O)c12	false
O=S(=O)(Nc1nccs1)c1ccc(N=Cc2cn(Cc3ccccc3)c3ccccc23)cc1	true
O=C1OC(=O)C2C1C1(c3ccccc3)OC2(c2ccccc2)c2c(Br)c(Br)c(Br)c(Br)c21 (centres undefined)	true
FC(F)(F)c1nc(Cl)nc2nc[nH]c12	false
O=c1c(Cl)c(Cl)oc(Cl)c1Cl	true
Cc1ccc(S(=O)(=O)OC2C(C)OCOC(C)C2OS(=O)(=O)c2ccc(C)cc2)cc1 (centres undefined)	false
CC(=O)Oc1ccc(N=[N+]([O-])c2ccc(OC(C)=O)cc2)cc1	false
CN(C)CCOc1cc2c(c3ccccc13)-c1ccccc1C2O (centres undefined)	false

----------
assay: NCI Yeast Anticancer Drug Screen. Data for the sgs1 mgt1 strain (AID 161);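 note: 0% = growth of cultures given vehicle only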; conditions: S. cerevisiae sgs1 mgt1 strain, at 50.0 µM, active compounds read high
The panel holds about 79,000 compounds, 15% with a hit somewhere; the sample as a whole holds those more often.
Classification field. Basis: growth inhibition. Definitions: LOW (below 50%), MEDIUM (50% to below 90%), HIGH (90% or more)

compound	assigned-category
COC1(OC)C(C#N)(C#N)C2(C(=O)Nc3ccccc32)C1(OC)OC (stereo not given)	HIGH
CCC(CC)C(c1ccc(O)cc1)c1ccc(O)cc1	HIGH
Nc1ccc(O)c2ccccc12	MEDIUM
COc1ccc2c(c1)C1(C)CCCC(C)(C(=O)O)C1C(Br)C2=O (stereo not given)	MEDIUM
O=C(O)CCSc1ncnc2nc[nH]c12	LOW
COc1cc(C=Nc2ccc(Cl)cc2)ccc1OC(=O)c1ccccc1	LOW
CN(C)c1ccc(/C=C(/C#N)c2ccc(Cl)cc2)cc1	LOW
C(=[CH]/[Sn]([c]1ccccc1)([c]1ccccc1)[c]1ccccc1)/c1ccccc1	HIGH
Cc1ccc2ccc(C(Nc3ccccc3)c3ccncc3)c(O)c2n1 (stereo not given)	LOW
NC1=NC(c2ccccc2)CC(c2cc(Cl)cc(Br)c2O)=N1 (stereo not given)	LOW
CCCCCCCCNc1ncnc2c1cnn2C	MEDIUM
Cc1ccc(C(=O)CC(N)C(=O)O)cc1 (stereo not given)	LOW
c1ccc2c(c1)ccc1ncccc12	LOW
COC([C@@H](OC(=O)c1ccccc1)[C@H](OC(=O)c1ccccc1)C(O)COC(=O)c1ccccc1)n1cc(C)c(=O)[nH]c1=O (stereo not given in full)	MEDIUM
O=C(c1ccc(Cl)cc1)C1N=NCC1c1ccccc1 (stereo not given)	LOW
O=c1nc(-c2ccccc2)cc(-c2ccccc2O)[nH]1	LOW
C=C1C(=O)O[C@@H]2C[C@@]3(C)CCC[C@H](C)C3=C[C@H]12	MEDIUM
CCCCCCCCS(=O)(=O)Nc1ccccc1	HIGH
CCOC(=O)Cc1[nH]c(C(=O)c2ccccc2)cc1C(=O)c1ccccc1	LOW
O=C1/C(=C/c2ccc([N+](=O)[O-])cc2)CNC/C1=C\c1ccc([N+](=O)[O-])cc1	MEDIUM
CC(C)CCCOC(=O)c1cc([N+](=O)[O-])cc([N+](=O)[O-])c1	HIGH
CCc1ccccc1NC(=O)C(C#N)C1=C(Cl)C(=O)c2ccccc2C1=O (stereo not given)	HIGH
COc1ccc(/C=C(/C#N)c2ccccc2)cc1	MEDIUM
O=C(O)CCC(=O)NNc1ccccc1	MEDIUM
C(=P(c1ccccc1)(c1ccccc1)c1ccccc1)[P+](c1ccccc1)(c1ccccc1)c1ccccc1	HIGH
CC1(C)CC(=O)C(c2ccccc2[N+](=O)[O-])=C(O)C1	MEDIUM
c1ccc(CCC2=Nc3ccccc3CO2)cc1	LOW
CC(=O)OC(OC(C)=O)c1ccc2ccc3cccc4ccc1c2c34	MEDIUM
O=C(Oc1cc(Cl)c(Cl)cc1Cl)c1ccco1	LOW

----------
Reported growth inhibition values follow for various compounds
assay: NCI Yeast Anticancer Drug Screen. Data for the bub3 strain (AID 167); details: S. cerevisiae bub3 mutant strain, at 5.0 µM (retest, dose inferred, filed as 0.5), active compounds read high
About 79,000 compounds went through this panel and 15% of them were active in at least one assay; those are over-represented in the sample as a whole.
quantity-kind: growth inhibition (%)

compound	quantity-kind	recorded-result
CCOC(=O)CC1C(=O)N(c2nc(-c3ccc(Br)cc3)cs2)N=C1C (configuration not stated)	growth inhibition	-23
O=[N+]([O-])c1cccc(S(=O)(=O)Cl)c1	growth inhibition	-2
CC1C(O)Oc2cc3c(cc2C1c1ccccc1O)OCO3 (configuration not stated)	growth inhibition	25
Cc1cc(N=O)c(NO)cc1C	growth inhibition	28
c1ccc2nc3ccccc3nc2c1	growth inhibition	-1
CC(C)=CN(C)C (tested in a mixture with another compound)	growth inhibition	-68
[O-][n+]1c(-c2ccccc2)c(Cl)c(-c2ccccc2)n1O	growth inhibition	8

----------
Reported growth inhibition values follow for various compounds
assay: NCI Yeast Anticancer Drug Screen. Data for the mec2-1 strain (AID 157); details: S. cerevisiae mec2-1 strain, at 5.0 µM (retest, dose inferred, filed as 0.5), active compounds read high
The panel holds about 79,000 compounds, 15% with a hit somewhere; the sample as a whole holds those more often.

given-smiles	reading-unit	growth inhibition
Nc1ncc(C(=O)c2ccccc2)cc1[N+](=O)[O-]	%	-44
Oc1ccc(-c2ccccc2)cc1Cl	%	-12
Cc1ccc(Cc2nc(=S)[nH][nH]2)cc1	%	-3

----------
Assay: NCI Yeast Anticancer Drug Screen. Data for the sgs1 mgt1 strain (AID 161);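 note: 0% = growth of cultures given vehicle only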
Conditions: S. cerevisiae sgs1 mgt1 strain, at 50.0 µM
Description: Growth inhibition of yeast strains with defined genetic alterations is measured as a screen for potential anti-cancer activity. Selected strains with alterations in DNA damage repair or cell cycle control were exposed to compounds and growth inhibition was measured relative to vehicle treated controls. The strain used in this assay is sgs1 mgt1
About 79,000 compounds went through this panel and 15% of them were active in at least one assay; those are over-represented in the sample as a whole. Calls of active or inactive are those of the source. No stated cut-off is given here; in the data, active means growth inhibition above about 70%; inactive means the rest. Where a SMILES comes first, the peptide text is derived from it. The star is where a group is joined. Trt = c1ccc(C(c2ccccc2)(c2ccccc2)*)cc1; OtBu = CC(C)(C)O*
Classes used: True = active, False = inactive

compound	assigned-category
C=C1CC(C)(COc2ccc3c(C)c(Cl)c(=O)oc3c2)OC1=O (stereo unspecified)	True
Cc1cc(N=O)c(NO)cc1C	True
O=C(O)CC(NC(=O)CP(=O)(O)O)C(=O)O.[NH-]C1CCCCC1[NH-].[Pt+2] (stereo unspecified)	False
Oc1cc(O)c2c(c1)OC(c1ccc(O)c(O)c1)C(OC1(c3cc(O)c(O)c(O)c3)Oc3cc(O)cc(O)c3C(O)C1O)C2 (stereo unspecified)	False
COC(=O)/C(C(C)=O)=C(\OC(C)=O)c1ccc(OC)c(OC)c1	False
CC(C)(c1ccc(OC#N)cc1)c1ccc(OC#N)cc1	True
CCC1=C(c2ccc(OC(C)=O)cc2)Cc2cc(OC(C)=O)ccc21	False
CC1C=CC(C)C2C(=O)C3C(C)C=CC(C)C3C(=O)C12 (stereo unspecified)	False
C=CCSc1nc2ccccc2c(=O)n1Cc1ccco1	False
Oc1[nH]c2ccccc2c1N=NC(=S)NCc1ccccn1	True
Cc1ccc(C)c2c3c([nH]c12)-c1ccccc1CC3	True
CN(C)N=Nc1c(-c2ccccc2)n[nH]c1-c1ccccc1	True
O=C([O-])C[n+]1c(/C=C/c2ccccc2)ccc2ccccc21	False
CCOC1(c2ccccc2)c2ccccc2S(=O)(=O)N1C (stereo unspecified)	False
CCCCCCCCCCCCCC(=O)CC(=O)c1c(O)cccc1O	False
CCCCC(O)(c1ccc2nc(NC(=O)OC)[nH]c2c1)c1cccs1 (stereo unspecified)	False
ClCC1CSC2(CCCCC2)O1 (stereo unspecified)	False
CCNC(=S)N/N=C(/C)c1cccc(/C(C)=N\NC(=S)NCC)n1	False
CCN(CC)CCNc1ccc2nnn3c4ccccc4c(=O)c1c23	False
C=C(Br)CN1CCC2(c3ccccc3)C(O)C([Se]c3ccccc3)CCC12 (stereo unspecified)	True
O=C(O)CCCc1ccc2ccccc2c1	False
CCC[CH2][Sn]([CH2]CCC)([O]C(=O)c1cc(OC)c(OC)cc1OC)[O][Sn]([CH2]CCC)([CH2]CCC)[O]C(=O)c1cc(OC)c(OC)cc1OC	True
O=C(c1c(F)c(F)c(F)c(F)c1F)N1CCN(C(=O)c2c(F)c(F)c(F)c(F)c2F)C1=S	True
COc1ccc2c(c1)[n+]([O-])c(C(N)=O)c(N)[n+]2[O-]	True
O=C1C2=C(CCCC2)C(=O)C(Cl)C1Cl (stereo unspecified)	True
CCCCCCCCCCCC(=O)OCC1OC(OC)C(NC(=O)N(CCCl)N=O)C(O)C1O (stereo unspecified)	True
CCCCCCCCc1ccc2c3ccccc3c3ccccc3c2c1	False
Oc1ccc(N=Nc2ccc(Cl)cc2)cc1O	True
CCOC(=O)c1c(Cl)nc2ccccc2c1N=[N+]=[N-]	True
COc1ccc(Cc2c(-c3ccc(C)cc3)n[nH]c(=O)c2C2C(=O)N(c3ccccc3)N=C2c2ccccc2)cc1 (stereo unspecified)	True
CC(C)(C)OC(=O)CNC(=O)C(Cc1ccccc1)NC(=O)C(N)CSC(c1ccccc1)(c1ccccc1)c1ccccc1 (stereo not drawn) (H-Cys(Trt)-Phe-Gly-OtBu; configuration not given here)	True
COc1ccc2cc3c4cc(OC)c(OC)cc4ccn3c2c1	False
CCCCN1C(=O)C[C@H]2[C@@H]3CCc4cc(OCCN5CCCC5)ccc4[C@H]3CC[C@]2(C)C1=O	True
CCOC(=O)c1ccccc1NC(OCC)C(=O)c1ccccc1 (stereo unspecified) (tested in a mixture with another compound)	True
S=c1[nH]c2c(-c3ccccc3)cccc2s1	True
c1ccc(B2OC(c3ccccc3)C(c3ccccc3)O2)cc1 (stereo unspecified)	False
